experiment: Dog plasma PK, IV and oral; format: in vivo; conditions: male, Beagle, dog, plasma, po, 5.1 mg/kg, Oral 5.1 mg kg-1, Dog 1
measured-attribute: Cmax

{"columns": ["compound-structure", "val"],
 "data": [
  ["Cc1nc(Nc2ncc(N3CCN(C)[C@H](C)C3)c(Nc3cc(C)n(C)n3)n2)cc(C2CC2)c1F", "300 nM"]
]}

----------
test: Rat blood PK, IV and oral; type: in vivo; details: Wistar, rat, whole blood, po, 10 mg/kg, Oral 10 mg kg-1, Rat 1

{"columns": ["molecule", "AUC(0-t) / µM·h"],
 "data": [
  ["Cc1nc(Nc2ncc(N3CCN(C)[C@H](C)C3)c(Nc3cc(C)n(C)n3)n2)cc(C2CC2)c1F [compound 12]", 31.8]
]}

----------
test: Hepatocyte Clint, dog; assay type: in vitro ADME; conditions: dog, hepatocytes

{"columns": ["compound-structure", "uom", "hepatocyte CLint"],
 "data": [
  ["Cc1nc(Nc2ncc(N3CCN(C)[C@H](C)C3)c(Nc3cc(C)n(C)n3)n2)cc(C2CC2)c1F", "µL/min/1e6 cells", 9.3]
]}

----------
test: Rat blood PK, IV and oral; type: in vivo; conditions: Wistar, rat, whole blood, iv, 2 mg/kg, IV 2 mg kg-1, Rat 2
measured-attribute: MRT (h)

{"columns": ["compound-structure", "val"],
 "data": [
  ["Cc1nc(Nc2ncc(N3CCN(C)[C@H](C)C3)c(Nc3cc(C)n(C)n3)n2)cc(C2CC2)c1F", 22.6]
]}

----------
molecular target: acetylcholine esterase (AChE) (Homo sapiens, UniProt P22303); construct: purchased CEREP, France (external assay service) 0363; test: AChE enzyme activity assay (CEREP); format: biochemical; settings: read-out: AChE IC50
Sequence (P22303 32-614): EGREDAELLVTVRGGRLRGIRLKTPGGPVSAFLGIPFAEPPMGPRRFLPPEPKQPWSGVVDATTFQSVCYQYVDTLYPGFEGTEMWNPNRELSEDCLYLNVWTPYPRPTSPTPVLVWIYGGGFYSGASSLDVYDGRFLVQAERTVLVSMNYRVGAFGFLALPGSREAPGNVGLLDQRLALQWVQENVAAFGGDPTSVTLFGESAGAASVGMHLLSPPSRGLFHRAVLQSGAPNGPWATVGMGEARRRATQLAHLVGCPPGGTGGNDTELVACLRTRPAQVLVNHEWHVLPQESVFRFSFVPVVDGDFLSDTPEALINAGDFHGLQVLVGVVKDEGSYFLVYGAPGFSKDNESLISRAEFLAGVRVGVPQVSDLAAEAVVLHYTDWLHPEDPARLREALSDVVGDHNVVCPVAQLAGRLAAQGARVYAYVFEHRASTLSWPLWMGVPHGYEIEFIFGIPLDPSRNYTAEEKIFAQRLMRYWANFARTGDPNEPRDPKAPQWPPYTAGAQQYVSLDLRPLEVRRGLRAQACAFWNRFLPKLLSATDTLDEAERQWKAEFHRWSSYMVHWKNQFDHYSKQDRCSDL
pIC50: −log10 of the molar value.
measured-attribute: pIC50

{"columns": ["compound", "inequality-sign", "val"],
 "data": [
  ["Cc1nc(Nc2ncc(N3CCN[C@H](C)C3)c(Nc3cc(C)n(C)n3)n2)ccc1F [compound 7]", "=", 4.18],
  ["CCc1cc(Nc2ncc(N3CCN[C@H](C)C3)c(Nc3cc(C)n(C)n3)n2)nc(C)c1F.Cl.Cl [compound 8]", "=", 4.52],
  ["Cc1nc(Nc2ncc(N3CCN(C)[C@H](C)C3)c(Nc3cc(C)n(C)n3)n2)cc(C2CC2)c1F [compound 12]", "<", 4.12],
  ["Cc1cc(Nc2ncc(N3CCN(C)CC3)c(N3CCCC3)n2)ccn1 [compound 2]", "=", 6.80]
]}

----------
assay: Dog plasma PK, IV and oral; type: in vivo; conditions: male, Beagle, dog, plasma, po, 5.1 mg/kg, Oral 5.1 mg kg-1, Mean
measured-attribute: Cmax (nM)

{"columns": ["compound-structure", "val"],
 "data": [
  ["Cc1nc(Nc2ncc(N3CCN(C)[C@H](C)C3)c(Nc3cc(C)n(C)n3)n2)cc(C2CC2)c1F", 452]
]}

----------
test system: Dd2 bc-1 ELQ-300; assay: [3H]-hypoxanthine incorporation assay, Dd2 bc-1 ELQ-300 resistant; type: cell-based, Plasmodium falciparum; conditions: Plasmodium falciparum, DD2
Listing: IC50 of selected compounds

{"columns": ["compound", "assayed-target", "IC50 [nM]"],
 "data": [
  ["Cc1nc(Nc2ncc(N3CCNC(C)C3)c(Nc3cc(C)n(C)n3)n2)cc(C2CC2)c1F.Cl.Cl (centres unmarked)", "Dd2 bc-1 ELQ-300", 10],
  ["Cc1nc(Nc2ncc(N3CCN(C)[C@H](C)C3)c(Nc3cc(C)n(C)n3)n2)cc(C2CC2)c1F", "Dd2 bc-1 ELQ-300", 8.2]
]}

----------
test: Rat blood PK, IV and oral; format: in vivo; conditions: Wistar, rat, whole blood, iv, 2 mg/kg, IV 2 mg kg-1, Mean; read-out: t½ (converted)

{"columns": ["compound-structure", "half-life (h)"],
 "data": [
  ["Cc1nc(Nc2ncc(N3CCN(C)[C@H](C)C3)c(Nc3cc(C)n(C)n3)n2)cc(C2CC2)c1F", 15.2]
]}

----------
experiment: Rat blood PK, IV and oral; type: in vivo; conditions: Wistar, rat, whole blood, po, 10 mg/kg, Oral 10 mg kg-1, Mean
measured-attribute: AUC(0-inf) (µM·h)

{"columns": ["compound", "measured-attribute", "val"],
 "data": [
  ["Cc1nc(Nc2ncc(N3CCN(C)[C@H](C)C3)c(Nc3cc(C)n(C)n3)n2)cc(C2CC2)c1F [compound 12]", "AUC(0-inf)", 35.8]
]}

----------
test: Solubility

{"columns": ["molecule", "solubility"],
 "data": [
  ["CCc1ccc(Nc2ncc(N3CCN(C)CC3)c(N3CCCC3)n2)cc1 [compound 1]", "10 µM"],
  ["Cc1cc(Nc2ncc(N3CCN(C)CC3)c(N3CCCC3)n2)ccn1 [compound 2]", "830 µM"]
]}

----------
Experiment: Rat blood PK, IV and oral
Format: in vivo
Conditions: Wistar (rat), Beagle (dog), rat, whole blood (rat), plasma (dog), intravenous, 2 mg/kg, rat and dog; read-out: volume of distribution (Vss)
Method: Blood samples were collected at 0.083, 0.25, 0.5, 1, 2, 4, 8, 23, 32, 48, 55 and 72 hours after an IV dose of 2 mg/kg or an oral dose of 10 mg/kg. Oral administration was done using oral gavage at a maximum dose volume of 10 mL/kg. […] This mixture was centrifuged and 10 µL of the supernatant was analyzed by LC-MS/MS. […]

{"columns": ["compound", "Vd"],
 "data": [
  ["Cc1nc(Nc2ncc(N3CCN(C)[C@H](C)C3)c(Nc3cc(C)n(C)n3)n2)cc(C2CC2)c1F [compound 12]", "10 to 20 L/kg"]
]}

----------
experiment: Dog plasma PK, IV and oral; type: in vivo; details: male, Beagle, dog, plasma, iv, 2.1 mg/kg, plasma, IV 2.1 mg kg-1, Mean; read-out: Vss
measured-attribute: Vd (L/kg)

{"columns": ["compound-structure", "measured-attribute", "val"],
 "data": [
  ["Cc1nc(Nc2ncc(N3CCN(C)[C@H](C)C3)c(Nc3cc(C)n(C)n3)n2)cc(C2CC2)c1F", "Vd", 22.7]
]}

----------
experiment: Plasma protein binding, rat
measured-attribute: fraction unbound

{"columns": ["compound-structure", "val"],
 "data": [
  ["Cc1nc(Nc2ncc(N3CCN(C)[C@H](C)C3)c(Nc3cc(C)n(C)n3)n2)cc(C2CC2)c1F", 0.04]
]}

----------
assay: Dog plasma PK, IV and oral; type: in vivo; details: male, Beagle, dog, plasma, iv, 2.1 mg/kg, IV 2.1 mg kg-1, Dog 1

{"columns": ["compound-structure", "AUC(0-inf) / µM·h"],
 "data": [
  ["Cc1nc(Nc2ncc(N3CCN(C)[C@H](C)C3)c(Nc3cc(C)n(C)n3)n2)cc(C2CC2)c1F", 2.72]
]}

----------
Measured Ki by item
Biological target: α1A adrenoceptor (Homo sapiens, UniProt P35348)
Sequence (P35348 1-466): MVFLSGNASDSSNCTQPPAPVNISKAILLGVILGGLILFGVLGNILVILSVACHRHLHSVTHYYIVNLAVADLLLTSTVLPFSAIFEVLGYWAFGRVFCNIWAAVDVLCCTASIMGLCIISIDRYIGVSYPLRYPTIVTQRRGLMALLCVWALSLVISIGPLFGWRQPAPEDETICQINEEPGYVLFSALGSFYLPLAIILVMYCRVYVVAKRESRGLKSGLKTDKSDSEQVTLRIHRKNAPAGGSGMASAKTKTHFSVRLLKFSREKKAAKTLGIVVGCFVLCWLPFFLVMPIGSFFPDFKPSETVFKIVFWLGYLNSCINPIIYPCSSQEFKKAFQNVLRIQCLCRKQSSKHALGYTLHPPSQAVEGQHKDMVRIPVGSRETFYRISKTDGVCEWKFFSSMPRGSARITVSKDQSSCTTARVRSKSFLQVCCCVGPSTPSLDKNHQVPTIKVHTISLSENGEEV
measured-attribute: Ki

{"columns": ["molecule", "measured-attribute", "val"],
 "data": [
  ["Cc1nc(Nc2ncc(N3CCN(C)[C@H](C)C3)c(Nc3cc(C)n(C)n3)n2)cc(C2CC2)c1F [compound 12]", "Ki", "604 nM"],
  ["Cc1cc(Nc2ncc(N3CCN(C)CC3)c(N3CCCC3)n2)ccn1 [compound 2]", "Ki", "1460 nM"]
]}

----------
assay: in vitro; type: in vitro ADME; conditions: mouse, pH 7.4; MLM, Michaelis-Menten
measured-attribute: Km (µM)

{"columns": ["compound-structure", "val"],
 "data": [
  ["Cc1nc(Nc2ncc(N3CCN(C)[C@H](C)C3)c(Nc3cc(C)n(C)n3)n2)cc(C2CC2)c1F", 78.3]
]}

----------
assay: Rat blood PK, IV and oral; assay type: in vivo; conditions: Wistar, rat, whole blood, po, 10 mg/kg, Oral 10 mg kg-1, Mean

{"columns": ["compound-structure", "AUC(0-t) / µM·h"],
 "data": [
  ["Cc1nc(Nc2ncc(N3CCN(C)[C@H](C)C3)c(Nc3cc(C)n(C)n3)n2)cc(C2CC2)c1F", 34.7]
]}
